Each item that follows carries a reported ddG of mutation (higher = less stable).
B1: Lysozyme C, P61626 (parent)
chain: MKALIVLGLVLLSVTVQGKVFERCELARTLKRLGMDGYRGISLANWMCLAKWESGYNTRATNYNAGDRSTDYGIFQINSRYWCNDGKTPGAVNACHLSCSALLQDNIADAVACAKRVVRDPQGIRAWVAWRNRCQNRDVRQYVQGCGV

# Variants of: B1
# Test Conditions: Homo sapiens; pH 2.7; 49.2 °C; Thermal; DSC; glycine 0.05 M; reversible: yes; structure 1LZ1; whole UniProt chain shown

Monomer Sequence | ddG of mutation (higher = less stable), kcal/mol
MKALIVLGLVLLSVTVQGKVFERCELARTLKRLGMDGYRGISLANWMCLAKWESGYNTRATNYNAGDRSTDYGIFQINSRYWCNDGKTPGAVNACHLSCSALLQDNIADAVACAKRVVRDPQGIRAWVAWRNRCQNRDARQYVQGCGV | 1.75
MKALIVLGLVLLSVTVQGKVFERCELARTLKRLGMDGYRGISLANWMCLAKWESGYNTRATNYNAGDRSTDYGIFQINSRYWCNDGKTPGAVNACHLSCSALLQDNIADAVACAKRVVRDPQGVRAWVAWRNRCQNRDVRQYVQGCGV | 0.98
MKALIVLGLVLLSVTVQGKVFERCELARTLKRLGMDGYRGISLANWMCLAKWESGYNTRATNYNAGDRSTDYGIFQINSRYWCNDGKTPGAVNACHLSCSALLQDNIADAVACAKRVVRDPQGIRAWAAWRNRCQNRDVRQYVQGCGV | -0.07
MKALIVLGLVLLSVTVQGKVFERCELARTLKRLGMDGYRGISLANWMCLAKWESGYNTRATNYNAGDRSTDYGIFQVNSRYWCNDGKTPGAVNACHLSCSALLQDNIADAVACAKRVVRDPQGIRAWVAWRNRCQNRDVRQYVQGCGV | 0.93
MKALIVLGLVLLSVTVQGKVFERCELARTLKRLGMDGYRGISLANWMCLAKWESGYNTRATNYNAGDRSTDYGIFQINSRYWCNDGKTPGAVNACHLSCSALLQDNIADAAACAKRVVRDPQGIRAWVAWRNRCQNRDVRQYVQGCGV | 1
MKALIVLGLVLLSVTVQGKAFERCELARTLKRLGMDGYRGISLANWMCLAKWESGYNTRATNYNAGDRSTDYGIFQINSRYWCNDGKTPGAVNACHLSCSALLQDNIADAVACAKRVVRDPQGIRAWVAWRNRCQNRDVRQYVQGCGV | 1.51
MKALIVLGLVLLSVTVQGKVFERCELARTLKRLGMDGYRGISLANWMCLAKWESGYNTRATNYNAGDRSTDYGIFQINSRYWCNDGKTPGAVNACHLSCSALLQDNIADAVACAKRVVRDPQGIRAWVAWRNRCQNRDVRQYAQGCGV | 1.6
MKALIVLGLVLLSVTVQGKVFERCELARTLKRLGMDGYRGVSLANWMCLAKWESGYNTRATNYNAGDRSTDYGIFQINSRYWCNDGKTPGAVNACHLSCSALLQDNIADAVACAKRVVRDPQGIRAWVAWRNRCQNRDVRQYVQGCGV | 0.41
MKALIVLGLVLLSVTVQGKVFERCELARTLKRLGMDGYRGISLANWMCLAKWESGYNTRATNYNAGDRSTDYGIFQINSRYWCNDGKTPGAVNACHLSCSALLQDNIADAVACAKRVVRDPQGIRAWVAWRNRCQNRDVRQYVQGCGA | 1.12
MKALIVLGLVLLSVTVQGKVFERCELARTLKRLGMDGYRGISLANWMCLAKWESGYNTRATNYNAGDRSTDYGIFQINSRYWCNDGKTPGAANACHLSCSALLQDNIADAVACAKRVVRDPQGIRAWVAWRNRCQNRDVRQYVQGCGV | 0.43
MKALIVLGLVLLSVTVQGKVFERCELARTLKRLGMDGYRGISLANWMCLAKWESGYNTRATNYNAGDRSTDYGIFQINSRYWCNDGKTPGAVNACHLSCSALLQDNIADAVACAKRVARDPQGIRAWVAWRNRCQNRDVRQYVQGCGV | 0.57
MKALIVLGLVLLSVTVQGKVFERCELARTLKRLGMDGYRGISLANWMCLAKWESGYNTRATNYNAGDRSTDYGVFQINSRYWCNDGKTPGAVNACHLSCSALLQDNIADAVACAKRVVRDPQGIRAWVAWRNRCQNRDVRQYVQGCGV | 1.34
MKALIVLGLVLLSVTVQGKVFERCELARTLKRLGMDGYRGISLANWMCLAKWESGYNTRATNYNAGDRSTDYGIFQINSRYWCNDGKTPGAVNACHLSCSALLQDNVADAVACAKRVVRDPQGIRAWVAWRNRCQNRDVRQYVQGCGV | 0.35

Values were extracted from FireProtDB (doi:10.1006/jmbi.1998.1906).
